Source listed as patent US10913745B2.

Target: ATX (human His-tagged) (Homo sapiens (Human), UniProt Q13822)
List of IC50 values.
Hi! Could you send only the number? It should be in nM, unit omitted.

Example entries begin here.
[[record]]
molecule = "NS(=O)(=O)c1ccc(C(=O)N2C[C@H]3CN(C(=O)OCc4ccc(OC(F)(F)F)cc4)C[C@@H]3C2)cc1 [Example 7.03]"
unit_of_measurement = "nM"
result_number = 4

[[record]]
molecule = "CNS(=O)(=O)c1ccc(C(=O)N2C[C@H]3CN(C(=O)OCc4cc(Cl)cc(Cl)c4)C[C@H]3C2)cc1 [Example 1]"
unit_of_measurement = "nM"
result_number = 1160

[[record]]
molecule = "CS(=O)(=O)Nc1ccc(C(=O)N2C[C@H]3CN(C(=O)OCc4cc(Cl)cc(Cl)c4)C[C@H]3C2)nc1 [Example 6]"
unit_of_measurement = "nM"
result_number = 622

[[record]]
molecule = "NS(=O)(=O)c1ccc(C(=O)N2C[C@H]3CN(C(=O)CCc4ccc(OC(F)(F)F)cc4F)C[C@H]3C2)cc1 [Example 8.07]"
unit_of_measurement = "nM"
result_number = 1

[[record]]
molecule = "Cn1cc(S(N)(=O)=O)cc1C(=O)N1C[C@H]2CN(C(=O)OCc3ccc(OC(F)(F)F)cc3)C[C@@H]2C1 [Example 1.14]"
unit_of_measurement = "nM"
result_number = 64


Lookup: For the molecule shown here, CCOc1cc(C(=O)N2C[C@@H]3CN(C(=O)c4ccc(S(N)(=O)=O)nc4)C[C@H]3C2)nc2ccccc12 [Example 1.21] , give the reported IC50.
Found: 118

Lookup: For the molecule shown here, CC(C)(C)C(=O)Nc1cc(C#N)ccc1COC(=O)N1C[C@@H]2CN(C(=O)c3ccc(S(N)(=O)=O)c(F)c3)C[C@H]2C1 [Example 1.22] , give the reported IC50.
Found: 7
